system-under-test: recombinant homotrimeric HA A/Solomon Islands/3/06 H1N1 (Influenza A virus A/Solomon Islands/3/2006(H1N1))
procedure-details: protein microarray, purified IgG, trimeric HA
details: remark: other sources report otherwise
attribute-measured: Trimeric HA Binding: RLU (RLU)

binder: TCN-551 (5243_D01) (antibody, V domains shown) VH: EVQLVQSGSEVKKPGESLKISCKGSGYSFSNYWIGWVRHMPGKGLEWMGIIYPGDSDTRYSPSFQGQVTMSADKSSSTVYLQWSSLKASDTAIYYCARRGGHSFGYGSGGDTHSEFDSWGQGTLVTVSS VL: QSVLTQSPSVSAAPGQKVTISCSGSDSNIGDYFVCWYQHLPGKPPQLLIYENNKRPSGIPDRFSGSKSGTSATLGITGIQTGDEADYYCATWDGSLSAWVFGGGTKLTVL
result: 25000
--
binder: TCN-558 (5248_H10b) (antibody, V domains shown) VH: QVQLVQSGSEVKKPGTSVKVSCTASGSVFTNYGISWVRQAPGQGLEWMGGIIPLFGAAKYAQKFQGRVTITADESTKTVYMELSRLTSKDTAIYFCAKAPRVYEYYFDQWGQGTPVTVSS VL: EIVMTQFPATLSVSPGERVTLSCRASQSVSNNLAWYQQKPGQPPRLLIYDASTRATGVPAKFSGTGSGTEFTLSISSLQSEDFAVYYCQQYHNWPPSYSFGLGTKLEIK
result: 22000
--
binder: TCN-552 (5249_I23) (antibody, V domains shown) VH: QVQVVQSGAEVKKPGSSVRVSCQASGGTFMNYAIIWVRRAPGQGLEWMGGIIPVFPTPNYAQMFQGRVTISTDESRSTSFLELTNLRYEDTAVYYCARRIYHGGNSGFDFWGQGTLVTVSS VL: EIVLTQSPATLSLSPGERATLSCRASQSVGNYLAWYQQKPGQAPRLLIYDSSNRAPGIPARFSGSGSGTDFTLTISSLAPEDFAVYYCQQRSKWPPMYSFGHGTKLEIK
result: 19400
--
binder: TCN-529 (5297_H01) (antibody, V domains shown) VH: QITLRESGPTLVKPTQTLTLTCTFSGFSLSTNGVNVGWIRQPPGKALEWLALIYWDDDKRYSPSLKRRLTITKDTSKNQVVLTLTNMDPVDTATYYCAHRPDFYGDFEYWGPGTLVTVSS VL: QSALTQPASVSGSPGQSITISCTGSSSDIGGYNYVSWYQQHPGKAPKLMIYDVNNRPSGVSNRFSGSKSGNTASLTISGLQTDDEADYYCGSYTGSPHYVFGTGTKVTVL
result: 2820
--
binder: TCN-530 (5248_H10a) (antibody, V domains shown) VH: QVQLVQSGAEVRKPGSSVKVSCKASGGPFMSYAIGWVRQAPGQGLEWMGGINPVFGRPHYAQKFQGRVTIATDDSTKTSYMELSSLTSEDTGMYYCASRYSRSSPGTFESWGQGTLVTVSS VL: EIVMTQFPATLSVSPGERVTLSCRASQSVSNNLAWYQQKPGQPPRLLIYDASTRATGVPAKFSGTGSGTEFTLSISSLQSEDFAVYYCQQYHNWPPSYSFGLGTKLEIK
result: 8570
--
binder: TCN-528 (5087_P17) (antibody, V domains shown) VH: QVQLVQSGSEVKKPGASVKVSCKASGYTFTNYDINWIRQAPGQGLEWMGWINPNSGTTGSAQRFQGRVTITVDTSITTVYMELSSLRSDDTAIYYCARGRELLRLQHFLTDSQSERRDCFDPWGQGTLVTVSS VL: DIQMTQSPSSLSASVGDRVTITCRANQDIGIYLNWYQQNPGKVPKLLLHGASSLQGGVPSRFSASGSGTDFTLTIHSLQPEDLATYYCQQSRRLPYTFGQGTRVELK
result: 25400
--
binder: TCN-538 (3206_O17) (antibody, V domains shown) VH: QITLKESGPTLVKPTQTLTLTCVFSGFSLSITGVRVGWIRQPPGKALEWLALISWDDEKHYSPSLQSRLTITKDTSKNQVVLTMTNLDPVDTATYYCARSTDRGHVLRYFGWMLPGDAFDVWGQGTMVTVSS VL: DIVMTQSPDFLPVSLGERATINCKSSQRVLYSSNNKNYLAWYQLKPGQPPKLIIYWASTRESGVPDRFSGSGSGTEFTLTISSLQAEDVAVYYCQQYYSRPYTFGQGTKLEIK
result: 9740
--
binder: TCN-527 (5086_C06) (antibody, V domains shown) VH: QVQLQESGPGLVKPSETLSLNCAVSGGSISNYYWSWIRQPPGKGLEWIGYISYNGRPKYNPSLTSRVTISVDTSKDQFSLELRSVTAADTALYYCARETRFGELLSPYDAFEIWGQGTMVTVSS VL: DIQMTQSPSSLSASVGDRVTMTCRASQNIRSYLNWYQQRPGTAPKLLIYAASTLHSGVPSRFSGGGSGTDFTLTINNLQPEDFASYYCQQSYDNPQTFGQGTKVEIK
result: 22900
--
binder: TCN-540 (5060_F05) (antibody, V domains shown) VH: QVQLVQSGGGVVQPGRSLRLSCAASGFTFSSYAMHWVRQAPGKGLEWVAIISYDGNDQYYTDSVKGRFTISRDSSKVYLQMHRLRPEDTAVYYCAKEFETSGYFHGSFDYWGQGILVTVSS VL: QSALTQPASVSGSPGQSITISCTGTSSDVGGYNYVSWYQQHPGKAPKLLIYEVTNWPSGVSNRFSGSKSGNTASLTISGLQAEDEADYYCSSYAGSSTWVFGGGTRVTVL
result: 9360
--
binder: TCN-553 (5261_C18) (antibody, V domains shown) VH: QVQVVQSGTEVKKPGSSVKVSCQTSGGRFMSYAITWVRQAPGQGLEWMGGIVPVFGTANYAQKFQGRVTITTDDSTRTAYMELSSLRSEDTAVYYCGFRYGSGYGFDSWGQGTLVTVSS VL: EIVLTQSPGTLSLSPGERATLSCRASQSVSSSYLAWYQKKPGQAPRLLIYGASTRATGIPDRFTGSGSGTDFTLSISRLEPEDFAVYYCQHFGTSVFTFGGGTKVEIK
result: 24600
